test system: L1210 leukemia ip in BDF1 mice, survival T/C; experiment: NCI In Vivo Anticancer Drug Screen. Data for tumor model L1210 Leukemia (intraperitoneal) in B6D2F1 (BDF1) mice; details: endpoint: mean survival time; dose: 50.0 mg/kg/injection; schedule: Q01DX009 (ip); vehicle: saline with Tween-80; higher = longer survival
Toxic doses and inconclusive results are not listed.
List of T/C values.

Study these solved cases before continuing.
molecule: O=Cc1cccc(CC(O)(C(F)(F)F)C(F)(F)F)n1
T/C: 101 % of control

molecule: CCOC(=O)C(C)CC(=O)c1ccccc1 (centres undefined)
T/C: 106 % of control

molecule: O=C(O)C1CCCCC1C(=O)Nc1ccc(Cl)cc1 (centres undefined)
T/C: 88 % of control

molecule: C=CCOCC(O)CN(CCCC)CCCC (centres undefined)
T/C: 97 % of control

molecule: O=C1c2ccccc2C(=O)N1CCc1ccccn1
T/C: 101 % of control

Query: Give T/C for the following molecule: Cc1oc2ccc(NS(=O)(=O)c3ccccc3)cc2c1C(=O)O
Reply: 107 % of control

Query: Consider the molecule CSc1nc([N+](=O)[O-])c2cnccn12 . State its measured T/C.
Reply: 93 % of control

Query: Hello, please tell me recorded T/C for this one: C=CCSC(C)CC (centres undefined)
Reply: 95 % of control

Query: Assign T/C to the following record: C#CCCC#C
Reply: 104 % of control

Query: Give the reported value of T/C for this record: CC(C#N)(Cc1ccccc1)Nc1ccccc1 (centres undefined)
Reply: 102 % of control

Query: Read off the recorded T/C for N#CC(C#N)C(=O)c1ccccc1
Reply: 96 % of control

Query: Let me know recorded T/C for CCOC(=O)CC1NCCC2C1CCC(OC)C2OC (centres undefined) , thanks.
Reply: 106 % of control

Query: Return the recorded T/C value; entry: CC(C)(C)CC(C)(C)N=C=S
Reply: 94 % of control
